The origin of these recorded values is ChEMBL document CHEMBL1201862.

Test system: DLD-1
experiment summary: NCI tumour cell line growth inhibition, 48 h
Active and inactive are the calls of the source. Rule as the data show it: active = GI50 up to about 1.1 µM and inactive = higher.
Permitted responses: yes (1) for active, no (0) for inactive

Observe how each entry below is paired with its result.
>>> print(df.to_string())
                                   compound  assayed_system  label_value
0  CCOC(=O)CCC(NC(=O)c1ccc(/N=C/c2nc3cc(C(F)(F)F)ccc3nc2-c2ccccc2)cc1)C(=O)OCC (configuration not stated)           DLD-1       no (0)
1  O=C(CC(=O)C1CCOC1=O)C(=O)Nc1cccc(Cl)c1 (configuration not stated)           DLD-1       no (0)
2          NC(=O)c1ccc(Cl)c([N+](=O)[O-])c1           DLD-1       no (0)
3  COc1ccc2[nH]c3c(c2c1)[C@H](c1ccccc1)C[C@@H]1C(=O)N(c2ccccc2)C(=O)[C@H]31           DLD-1       no (0)
4  COc1cc(C2c3cc4c(cc3[C@@H](NC3CCN(Cc5ccccc5)CC3)C3COC(=O)[C@H]23)OCO4)cc(OC)c1O (some centres not stated)           DLD-1      yes (1)
5  CC1CC[C@@]23CCC4(C)[C@@](C=CC5[C@@]6(C)CCC(=O)C(C)(C)C6CC[C@]54C)(OC2=O)[C@@H]3[C@H]1C (some centres not stated)           DLD-1       no (0)

Kindly review the next compound as well.
**Query** For NC(CCC(=O)NC(CSSCCCCS(=O)O)C(=O)NCC(=O)O)C(=O)O (configuration not stated) , which call appears in the assay record?
**Result** no (0)

###

System: CCRF-CEM
experiment summary: NCI tumour cell line growth inhibition, 48 h
Calls of active or inactive are those of the source. Cut-off read from the data, not from the text of the source: active = GI50 up to about 1.1 µM and inactive = higher.
property measured: GI50

Past entries and their recorded results:
In [3]: df
Out[3]:
                                  compound             reported
0  CCN(CC)CCN1C(=O)c2cccc3cc(N)cc(c23)C1=O   6.28 µM (inactive)
1          O=C(Nc1ccn(CCO)c(=O)n1)c1ccccc1  > 100 µM (inactive)

Items follow; give GI50 for each.
1. O=S1(=O)c2ccccc2N2CCCc3cc(Cl)cc1c32
2. COc1ccc(Nc2nc3ccccc3nc2-c2cccs2)cc1OC

**Result**
> 100 µM (inactive)
> 10 µM (inactive)

###

System: EKVX
experiment summary: NCI tumour cell line growth inhibition, 48 h
Activity calls are given as the source filed them. No stated cut-off is given here; in the data, active = GI50 up to about 1.1 µM and inactive = higher.
property measured: GI50

Past entries and their recorded results:
>>> df
                  compound_structure_string            reported
0  COc1ccc2[nH]c3c(C)cc([N+](=O)[O-])c(C)c3c2c1    31 µM (inactive)
1  NC(=O)C(=Cn1c(=S)[nH]c2ccc([N+](=O)[O-])cc21)C(N)=O  19.7 µM (inactive)

Next compound, GI50 to be filled in.
// GI50 lookup, compound = Nc1sc2c(c1C(=O)c1ccc(Cl)c(Cl)c1)CCCC2 , result: 29.1 µM (inactive)

###

System: NCI/ADR-RES
experiment summary: NCI tumour cell line growth inhibition, 48 h
Active and inactive are the calls of the source. No stated cut-off is given here; in the data, active = GI50 up to about 1.1 µM and inactive = higher.
property measured: GI50

>>> print(df.to_string())
                                   compound             reported
0  O=C(c1ccco1)N(C(=O)N1CCC(c2ccccc2)CC1)c1ccccc1   23.2 µM (inactive)
1  Nc1ccc(Oc2ccc(C34CC5CC(C3)CC(c3ccc(Oc6ccc(N)c(O)c6)cc3)(C5)C4)cc2)cc1O   2.32 µM (inactive)
2  CCN1CC(C)Cn2c(=O)[nH]c3cc(Br)cc1c32 (stereo not given)   8.05 µM (inactive)
3        CCOC(=O)c1nnsc1NC(=O)Nc1ccc(Cl)cc1   25.1 µM (inactive)
4  CCOC(=O)Cc1ccc(Nc2nc3cc(C(F)(F)F)ccc3nc2C(=O)OCC)cc1  > 100 µM (inactive)
5  CSC(SC)=C(C(=O)c1ccc(Cl)cc1)n1c(=O)sc2cc(Br)ccc21  > 100 µM (inactive)
6  COC(=O)C1=C(C)C(=O)[C@]23C(CCCC[C@H]12)C(=O)[C@H](C(=O)OC)C3C (stereo not given in full)  > 100 µM (inactive)
7  O=C(O)Cc1ccc(Oc2nc3ccccc3nc2-c2cccs2)cc1   60.5 µM (inactive)
8  CCOC(=O)[C@@]12C[C@](/C=C/OC)(O[Si](C)(C)C)[C@@]13c1cc(OC)c(OC)cc1CCN3C(=O)C2O (stereo not given in full)  > 100 µM (inactive)

Next compound, GI50 to be filled in.
// GI50 lookup, compound = COC(=O)c1cn(CCCC(=O)O)nn1 , result: > 100 µM (inactive)
